Measured Inhibition in vitro OXO BINDING IC50 accompanies every entry in the list below.
measured.target: muscarinic acetylcholine receptors
run.description: Inhibition of specific binding of 3H-Oxotremorine-M (OXO BINDING) in vitro, rat cortex
Design: species or system male Wistar rats
measurement.parameters: rat cortex homogenate, 3H-Oxotremorine 1.0 nM, 30 min at 25° C., pH 7.4
Record the value in ng/mL, omitting the unit from your answer.

compound	reported.value
CC(C)CCCOc1nsnc1[C@@H]1CN2CCC[C@@H]1C2 (relative stereo) [Compound 123]	0.47

Next compound, Inhibition in vitro OXO BINDING IC50 to be filled in.
Lab note: need Inhibition in vitro OXO BINDING IC50 with muscarinic acetylcholine receptors for entry c1csc(CCCSc2nsnc2C2CN3CCC2CC3)c1 (stereo not drawn) [Compound 104] , please look it up.
0.85

====

measured.target: muscarinic acetylcholine receptors
run.description: Inhibition of specific binding of 3H-Oxotremorine-M (OXO BINDING) in vitro, rat cortex
Parameters: species or system male Wistar rats
measurement.parameters: rat cortex homogenate, 3H-Oxotremorine 1.0 nM, 30 min at 25° C., pH 7.4
measured.endpoint: Inhibition in vitro OXO BINDING IC50 (ng/mL)
Record the value in ng/mL, omitting the unit from your answer.

compound	measured.target	measured.endpoint	result.units	reported.value
CCCCCCSc1nsnc1C12CCCN(CC1)C2.O=C(O)C(=O)O (stereo not drawn)	muscarinic acetylcholine receptors	Inhibition in vitro OXO BINDING IC50	ng/mL	0.69

Bench note: what Inhibition in vitro OXO BINDING IC50 did c1ccc(CCCSc2nsnc2[C@H]2CN3CCC[C@@H]2C3)cc1 (relative stereo) show?
17

Bench note: what Inhibition in vitro OXO BINDING IC50 did CCCCSc1nsnc1[C@@H]1CN2CCC[C@@H]1C2 (single isomer, unassigned) [Compound 111] show?
0.32

Bench note: what Inhibition in vitro OXO BINDING IC50 did N#CCCCSc1nsnc1[C@H]1CN2CCC[C@H]1C2 (relative stereo) show?
0.40

Bench note: what Inhibition in vitro OXO BINDING IC50 did Clc1nsnc1[C@H]1CN2CCC[C@@H]1C2 (relative stereo) show?
67

Bench note: what Inhibition in vitro OXO BINDING IC50 did FC(F)(F)CCCSc1nsnc1[C@@H]1CN2CCC[C@@H]1C2 (single isomer, unassigned) show?
0.60

Bench note: what Inhibition in vitro OXO BINDING IC50 did CCC(C)Sc1nsnc1C1CN2CCC1CC2.O=C(O)/C=C/C(=O)O (stereo not drawn) show?
0.82

====

measured.target: muscarinic acetylcholine receptors
run.description: Inhibition of specific binding of 3H-Oxotremorine-M (OXO BINDING) in vitro, rat cortex
Design: species or system male Wistar rats
measurement.parameters: rat cortex homogenate, 3H-Oxotremorine 1.0 nM, 30 min at 25° C., pH 7.4
measured.endpoint: Inhibition in vitro OXO BINDING IC50 (ng/mL)
Record the value in ng/mL, omitting the unit from your answer.

Bench note: what Inhibition in vitro OXO BINDING IC50 did CCCCCCOc1nsnc1C1(O)CN2CCC1CC2.O=C(O)C(=O)O (stereo not shown) show?
13

Bench note: what Inhibition in vitro OXO BINDING IC50 did CCCCCCOc1nsnc1C1=C(Cl)C2CCCN(C1)C2.Cl (stereo not shown) show?
12

Bench note: what Inhibition in vitro OXO BINDING IC50 did c1ccc(CCCSc2nsnc2[C@@H]2CN3CC[C@H]2C3)cc1 (relative stereo) show?
1.9
